experiment: inhibition of 3D7 malaria parasite growth – strain 3D7 (AID 2306);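 note: 0% = DMSO wells and 100% = chloroquine plus artemisinin control wells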; settings: P. falciparum 3D7 erythrocytic growth, LDH absorbance, 72 h; at 2 µM; hits give high values
quantityName: growth inhibition (%)
Reply with just the number (in %).

Look over these answered cases.
* Cc1c(Cl)cccc1NC(=S)NN=Cc1ccccn1 | 99
* COc1ccc2c(=O)c(C3CCC(c4ccc(Cl)cc4)CC3)c(C)[nH]c2c1 (stereo not given) | 97
* CN(C)CCCNc1ncnc2c1[nH]c1ccc(F)cc12 | 100
* N#Cc1cccc(Nc2cc(C(F)(F)F)nc(Nc3ccccc3)n2)c1 | 92
* O=C1Nc2cccc3c2C1(CCCCN1CCC(c2c(-c4ccccc4)[nH]c4ccccc24)CC1)CCC3 (stereo not given) | 84

Record request: growth inhibition value, item `Cc1cc(Nc2cc(Cl)cc(Cl)c2)nc(N)n1` 94

Record request: growth inhibition value, item COc1ccc([C@@]23Oc4cc(OC)cc(OC)c4[C@]2(O)C2(CC3c3ccccc3)SCCCS2)cc1 (stereo not given in full) 96

Record request: growth inhibition value, item c1ccc(CSC2=NNC(c3ccccn3)S2)cc1 (stereo not given) 80

###

test: human hepatoma cell viability loss – ATP luminescence, cytotoxicity control for P. falciparum antimalarial project, primary screen (AID 2303); conditions: HepG2 viability, 24-48 h, at 10 µM, hits give high values;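 note: 0% = DMSO wells and 100% = digitonin-killed cells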
quantityName: inhibition (%)
Reply with just the number (in %).

Look over these answered cases.
- c1ccc2[nH]c(-c3ccc(-c4ccc(CN5CCN(c6ccncc6)CC5)cc4)s3)nc2c1: 25
- Cc1ccc(C)c2c1[nH]c1ccc(C3=NCCN3)cc12: 29
- CC(C)Cc1nc(N)nc(N)c1-c1ccc(Cl)cc1: 5
- c1ccc(CNCc2ccc(-c3ccc(-c4nc5ccccc5[nH]4)cc3)cc2)cc1: 32
- CCC1CCCCN1S(=O)(=O)c1ccc(OC)c(N2CCN(C(=O)C(Cl)(Cl)Cl)CC2)c1 (centres undefined): 9
- COc1ccc(-n2nc(C(=O)NCCC3=CCCCC3)c3ccccc3c2=O)cc1: 0
- COc1ccc2ncc(C#N)c(CCN3CCC(NCc4ccc5c(c4)NC(=O)CO5)CC3)c2c1: 25
- Cc1ccc2nc(C)cc(NN=CC=Cc3ccccc3)c2c1: 0

Record request: inhibition value, item `O=S(=O)(c1ccc(NC(=S)NN=Cc2ccccn2)cc1)N1CCCCC1` 43

Record request: inhibition value, item CC(CN1CCN(C)CC1)C(=O)Nc1ccc(-c2ccc(-c3nc4ccccc4[nH]3)s2)cc1 (centres undefined) 5

Record request: inhibition value, item `COc1ccc2nccc([C@@H](O)CN3CC[C@H](NCc4cnc5c(c4)NC(=O)CS5)[C@H](F)C3)c2c1` -4

Record request: inhibition value, item `COc1ccc2nc(C)cc(NN=Cc3ccccc3)c2c1` 4

Record request: inhibition value, item `O=C(Nc1ccc(Oc2ccccc2)cc1)N(CCN1CCCC1)Cc1ccc(-c2ccc(CN3CCNCC3)cc2)cc1` 48

Record request: inhibition value, item `Oc1ccc(CCCNc2nc(NCc3ccccc3-c3ccccc3)nc(NC3CCNCC3)n2)cc1` -1

Record request: inhibition value, item `Cc1cc2ncn(-c3nccc(NCc4ccc(F)cc4)n3)c2cc1C` 10

Record request: inhibition value, item `O=C(Nc1ccc(Cn2ncc(N3CCCNCC3)c(Cl)c2=O)cc1)Nc1cc(F)cc(C(F)(F)F)c1` 35

Record request: inhibition value, item `COc1cc2nc(NCCc3cccc(Cl)c3)nc(NCc3ccccc3)c2cc1OC` 97

Record request: inhibition value, item `Fc1ccc2nc(-c3cccc(-c4ccc(CN5CCN(c6cnccn6)CC5)cc4)c3)[nH]c2c1` 19

Record request: inhibition value, item `FC(F)(F)c1ccc2c(NN=Cc3cccc(Cl)c3)ccnc2c1` 7

Record request: inhibition value, item `COc1ccc(-c2ccc(NC(=O)c3ccc(C#N)cc3)cc2)cc1CN(C)CCN(C)C` 28

Record request: inhibition value, item `CCCCCCNC(=O)c1nn(CCN2CCC(N3CCCC3)CC2)cc1-c1ccc(Cl)c(Cl)c1` 31

Record request: inhibition value, item NC(Cc1cccc(I)c1)C(=O)NCC1CCCO1 (centres undefined) 52

Record request: inhibition value, item `CCCc1cc(Cc2cnc(N)nc2N)ccc1OCCCCCC(=O)OCC` -11

Record request: inhibition value, item `COc1ccc2ncc(C#N)c(CCN3CCC(NCc4ccc5c(n4)NC(=O)CS5)CC3)c2n1` 9

Record request: inhibition value, item `O=C(Nc1ccc(Cl)cc1)N1CCN(C2CCCCC2)CC1` 17

Record request: inhibition value, item `COc1cc(CNC[C@@H](O)[C@H](Cc2ccccc2)NC(=O)c2cc(C3CCCC3)cc(N3CCCS3(=O)=O)c2)cc(OC)c1` 31

Record request: inhibition value, item `COc1ccc(CCN(C)CCOc2ccc(NC(=O)c3cc(SC)cc4c(=O)c5ccccc5[nH]c34)cc2)cc1OC` 7

Record request: inhibition value, item `CCCc1cc(N2CCC(N3CCCC3)CC2)nc(Nc2ccc(OC)cc2)n1` 15

Record request: inhibition value, item O=C(Nc1ccc(Br)cc1)N(CCN1CCOCC1)CC(O)COCc1ccc(F)cc1 (centres undefined) 5
